The reported numbers originate from ChEMBL document CHEMBL1129606.

- experimental system: Delta(7)-sterol 5(6)-desaturase
- method: Inhibition of 5-Desaturase involved in ergosterol biosynthesis
Attribute: IC50
Give the number first and the unit second.

A selection of reference data follows.
>  <compound>
C[C@]12CC[C@H](O)C[C@]1(O)[C@@H](O)C=C1CCC12 (some centres not stated)

>  <experimental system>
Delta(7)-sterol 5(6)-desaturase

>  <assay value>
149 µM

$$$$
>  <compound>
C[C@]12CC[C@H](O)C[C@]1(C=O)CC=C1CCC12 (some centres not stated)

>  <experimental system>
Delta(7)-sterol 5(6)-desaturase

>  <assay value>
116 µM

$$$$

Requested field: IC50. Item: C[C@]12CC[C@H](O)C[C@]1(O)[C@H](O)C=C1CCC12 (some centres not stated) 96 µM

Consider the compound C[C@]12CC[C@H](O)C[C@@H]1[C@@H](O)C=C1CCC12 (some centres not stated) and give its measured IC50. 47 µM

For the compound C[C@]12CC[C@H](O)[C@H]3O[C@]31CC=C1CCC12 (some centres not stated) , what IC50 is on record? 66 µM

I am curious: what IC50 value has been reported for C[C@]12CC[C@H](O)C[C@]1(O)CC=C1CCC12 (some centres not stated) ? 148 µM

Any idea what its IC50 is? The compound is C[C@]12CC[C@H](O)C[C@]1(/C=N/O)CC=C1CCC12 (some centres not stated) 136 µM

# lookup: IC50 of C[C@]12CC[C@H](O)C[C@]1(C(N)=O)CC=C1CCC12 (some centres not stated) 114 µM

Recorded IC50 for C[C@]12CC[C@H](O)C[C@]1(C#N)CC=C1CCC12 (some centres not stated) , please? 131 µM

* * *

This section presents molecules with their documented IC50 values.
- experimental system: Delta(7)-sterol 5(6)-desaturase
- method: Inhibition of 5-Desaturase involved in ergosterol biosynthesis

Observe how each entry below is paired with its result.
>  <molecule>
C[C@]12CC[C@H](O)C[C@]1(CO)CC=C1CCC12 (stereo partly drawn)

>  <experimental system>
Delta(7)-sterol 5(6)-desaturase

>  <readout label>
IC50

>  <assay value>
112 µM

$$$$
>  <molecule>
C[C@]12CC[C@H](O)C[C@]1(S)CC=C1CCC12 (stereo partly drawn)

>  <experimental system>
Delta(7)-sterol 5(6)-desaturase

>  <readout label>
IC50

>  <assay value>
80 µM

$$$$

We next turn to a different molecule, shown below.
Bench note: what IC50 did C[C@]12CC[C@H](O)C[C@]1(C(=O)O)CC=C1CCC12 (stereo partly drawn) show? 111 µM
